tgt: human alpha1 nicotinic acetylcholine (nACh) receptor (Homo sapiens, UniProt P02708)
Sequence (P02708 21-457): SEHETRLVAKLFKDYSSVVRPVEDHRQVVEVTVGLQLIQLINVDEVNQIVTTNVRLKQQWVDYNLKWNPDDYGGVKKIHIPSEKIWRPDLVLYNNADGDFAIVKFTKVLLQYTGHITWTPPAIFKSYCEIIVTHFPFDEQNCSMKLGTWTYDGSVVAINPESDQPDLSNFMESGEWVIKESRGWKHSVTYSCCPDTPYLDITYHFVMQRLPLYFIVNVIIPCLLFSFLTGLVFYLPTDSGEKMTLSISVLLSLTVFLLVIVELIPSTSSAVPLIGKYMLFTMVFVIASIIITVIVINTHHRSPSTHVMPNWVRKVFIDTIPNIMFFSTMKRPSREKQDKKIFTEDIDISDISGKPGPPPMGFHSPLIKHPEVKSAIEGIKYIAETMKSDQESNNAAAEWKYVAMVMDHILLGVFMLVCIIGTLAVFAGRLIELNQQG
Sequence (P11230 24-501 partner): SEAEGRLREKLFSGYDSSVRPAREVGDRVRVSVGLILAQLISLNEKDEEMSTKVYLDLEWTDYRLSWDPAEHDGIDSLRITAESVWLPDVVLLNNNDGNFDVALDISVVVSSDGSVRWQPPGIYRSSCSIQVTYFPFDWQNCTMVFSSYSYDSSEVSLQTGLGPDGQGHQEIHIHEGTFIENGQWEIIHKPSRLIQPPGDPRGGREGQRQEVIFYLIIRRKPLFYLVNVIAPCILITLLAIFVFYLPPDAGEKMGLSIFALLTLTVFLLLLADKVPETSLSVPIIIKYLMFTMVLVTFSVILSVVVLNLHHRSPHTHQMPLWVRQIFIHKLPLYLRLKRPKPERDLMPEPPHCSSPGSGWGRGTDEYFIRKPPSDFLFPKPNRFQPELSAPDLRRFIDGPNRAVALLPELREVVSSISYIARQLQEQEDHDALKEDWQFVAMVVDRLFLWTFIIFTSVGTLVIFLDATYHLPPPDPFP
Sequence (Q07001 22-517 partner): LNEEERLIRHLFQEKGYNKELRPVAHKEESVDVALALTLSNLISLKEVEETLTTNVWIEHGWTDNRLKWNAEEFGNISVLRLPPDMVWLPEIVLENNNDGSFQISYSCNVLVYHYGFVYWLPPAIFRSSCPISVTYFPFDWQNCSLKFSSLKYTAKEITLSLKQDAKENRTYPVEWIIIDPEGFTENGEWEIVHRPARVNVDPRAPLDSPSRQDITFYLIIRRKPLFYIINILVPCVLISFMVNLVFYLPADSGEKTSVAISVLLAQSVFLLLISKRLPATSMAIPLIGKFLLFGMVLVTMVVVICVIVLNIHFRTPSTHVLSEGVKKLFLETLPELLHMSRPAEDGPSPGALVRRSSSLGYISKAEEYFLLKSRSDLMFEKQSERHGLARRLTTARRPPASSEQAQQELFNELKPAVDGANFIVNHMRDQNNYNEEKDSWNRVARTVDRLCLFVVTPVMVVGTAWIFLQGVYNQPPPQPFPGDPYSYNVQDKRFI
measurement-description: Nicotinic acetylcholine receptor antagonism assay, IONFlux automated patch clamp (Example 203)
run-conditions: antagonism of ACh-stimulated human alpha1 nAChR current, patch clamp
pIC50: −log10 of the molar value.
property-measured: pIC50

- structure-string: "CC(C)N(C)[C@@H]1CC[C@H](N2CC[C@H](Nc3ncnc4ccc(C(F)(F)F)cc34)C2=O)[C@H](NC(=O)[C@H]2CC[C@@H](NC(=O)COCCNC(=O)COCCNC(=O)[C@H]3CC(=O)N(C)[C@@H]3c3cccnc3)CC2)C1"
  tgt: "human alpha1 nicotinic acetylcholine (nACh) receptor (Homo sapiens, UniProt P02708)"
  result-operator: "="
  reported-value: 4.48
- structure-string: "CC(C)N(C)[C@@H]1CC[C@H](N2CC[C@H](Nc3ncnc4ccc(C(F)(F)F)cc34)C2=O)[C@H](NC(=O)[C@H]2C[C@@H](NC(=O)CCOCCOCCNC(=O)CCNC(=O)[C@H]3CC(=O)N(C)[C@@H]3c3cccnc3)C2)C1"
  tgt: "human alpha1 nicotinic acetylcholine (nACh) receptor (Homo sapiens, UniProt P02708)"
  result-operator: "="
  reported-value: 4.10
- structure-string: "CC(C)N(C)[C@@H]1CC[C@H](N2CC[C@H](Nc3ncnc4ccc(C(F)(F)F)cc34)C2=O)[C@H](NC(=O)[C@H]2C[C@@H](NC(=O)CCOCCOCCOCCNC(=O)[C@H]3CC(=O)N(C)[C@@H]3c3cccnc3)C2)C1"
  tgt: "human alpha1 nicotinic acetylcholine (nACh) receptor (Homo sapiens, UniProt P02708)"
  result-operator: "="
  reported-value: 4.07
- structure-string: "CC(C)N(C)[C@@H]1CC[C@H](N2CC[C@H](Nc3ncnc4ccc(C(F)(F)F)cc34)C2=O)[C@H](NC(=O)CCOCCC(=O)N[C@H]2C[C@H](C(=O)NCCOCCNC(=O)[C@H]3CC(=O)N(C)[C@@H]3c3cccnc3)C2)C1"
  tgt: "human alpha1 nicotinic acetylcholine (nACh) receptor (Homo sapiens, UniProt P02708)"
  result-operator: "="
  reported-value: 4.15
- structure-string: "CC(C)N(C)[C@@H]1CC[C@H](N2CC[C@H](Nc3ncnc4ccc(C(F)(F)F)cc34)C2=O)[C@H](NC(=O)[C@H]2CC[C@H](C(=O)NCCCOCCCCOCCCNC(=O)[C@H]3CC(=O)N(C)[C@@H]3c3cccnc3)CC2)C1"
  tgt: "human alpha1 nicotinic acetylcholine (nACh) receptor (Homo sapiens, UniProt P02708)"
  result-operator: "≤"
  reported-value: 4.00
- structure-string: "CC(C)N(C)[C@@H]1CC[C@H](N2CC[C@H](Nc3ncnc4ccc(C(F)(F)F)cc34)C2=O)[C@H](NC(=O)[C@H]2C[C@H](NC(=O)CCCO[C@H]3CC[C@H](OCCNC(=O)[C@H]4CC(=O)N(C)[C@@H]4c4cccnc4)CC3)C2)C1"
  tgt: "human alpha1 nicotinic acetylcholine (nACh) receptor (Homo sapiens, UniProt P02708)"
  result-operator: "="
  reported-value: 4.33
- structure-string: "CN1C(=O)C[C@H](C(=O)NCCOCCOCCOCCOCCOCCOCCC(=O)N[C@@H]2C[C@H](NC(C)(C)C)CC[C@@H]2N2CC[C@H](Nc3ncnc4ccc(C(F)(F)F)cc34)C2=O)[C@H]1c1cccnc1"
  tgt: "human alpha1 nicotinic acetylcholine (nACh) receptor (Homo sapiens, UniProt P02708)"
  result-operator: "≤"
  reported-value: 5.00
- structure-string: "CN1C(=O)C[C@H](C(=O)NCCOCCNC(=O)[C@H]2C[C@H](NC(=O)CCOCCC(=O)N[C@@H]3C[C@H](NC(C)(C)C)CC[C@@H]3N3CC[C@H](Nc4ncnc5ccc(C(F)(F)F)cc45)C3=O)C2)[C@H]1c1cccnc1"
  tgt: "human alpha1 nicotinic acetylcholine (nACh) receptor (Homo sapiens, UniProt P02708)"
  result-operator: "="
  reported-value: 4.07
- structure-string: "CN1C(=O)C[C@H](C(=O)NCCOCCOCCOCCC(=O)N[C@H]2CC[C@@H](C(=O)N[C@@H]3C[C@H](NC(C)(C)C)CC[C@@H]3N3CC[C@H](Nc4ncnc5ccc(C(F)(F)F)cc45)C3=O)CC2)[C@H]1c1cccnc1"
  tgt: "human alpha1 nicotinic acetylcholine (nACh) receptor (Homo sapiens, UniProt P02708)"
  result-operator: "="
  reported-value: 4.07
- structure-string: "CC(C)N(C)[C@@H]1CC[C@H](N2CC[C@H](Nc3ncnc4ccc(C(F)(F)F)cc34)C2=O)[C@H](NC(=O)CCOCCC(=O)N[C@H]2C[C@@H](C(=O)NCCOCCNC(=O)[C@H]3CC(=O)N(C)[C@@H]3c3cccnc3)C2)C1"
  tgt: "human alpha1 nicotinic acetylcholine (nACh) receptor (Homo sapiens, UniProt P02708)"
  result-operator: "="
  reported-value: 4.50
- structure-string: "CC(C)N(C)[C@@H]1CC[C@H](N2CC[C@H](Nc3ncnc4ccc(C(F)(F)F)cc34)C2=O)[C@H](NC(=O)CNC(=O)[C@H]2CC[C@@H](NC(=O)CCOCCOCCNC(=O)[C@H]3CC(=O)N(C)[C@@H]3c3cccnc3)CC2)C1"
  tgt: "human alpha1 nicotinic acetylcholine (nACh) receptor (Homo sapiens, UniProt P02708)"
  result-operator: "="
  reported-value: 4.15
- structure-string: "CN1C(=O)C[C@H](C(=O)NCCO[C@H]2CC[C@H](OCCCC(=O)N[C@H]3CC[C@H](C(=O)N[C@@H]4C[C@H](NC(C)(C)C)CC[C@@H]4N4CC[C@H](Nc5ncnc6ccc(C(F)(F)F)cc56)C4=O)CC3)CC2)[C@H]1c1cccnc1"
  tgt: "human alpha1 nicotinic acetylcholine (nACh) receptor (Homo sapiens, UniProt P02708)"
  result-operator: "≤"
  reported-value: 4.48
- structure-string: "CC(C)N(C)[C@@H]1CC[C@H](N2CC[C@H](Nc3ncnc4ccc(C(F)(F)F)cc34)C2=O)[C@H](NC(=O)CCOCCOCCOCCOCCOCCOCCNC(=O)[C@H]2CC(=O)N(C)[C@@H]2c2cccnc2)C1"
  tgt: "human alpha1 nicotinic acetylcholine (nACh) receptor (Homo sapiens, UniProt P02708)"
  result-operator: "≤"
  reported-value: 5.00
- structure-string: "CC(C)N(C)[C@@H]1CC[C@H](N2CC[C@H](Nc3ncnc4ccc(C(F)(F)F)cc34)C2=O)[C@H](NC(=O)CCOCCOCCNC(=O)CCOCCOCCNC(=O)[C@H]2CC(=O)N(C)[C@@H]2c2cccnc2)C1"
  tgt: "human alpha1 nicotinic acetylcholine (nACh) receptor (Homo sapiens, UniProt P02708)"
  result-operator: "="
  reported-value: 4.49
- structure-string: "CC(C)N(C)[C@@H]1CC[C@H](N2CC[C@H](Nc3ncnc4ccc(C(F)(F)F)cc34)C2=O)[C@H](NC(=O)[C@H]2CC[C@@H](C3CCN(C(=O)CCOCCOCCNC(=O)[C@H]4CC(=O)N(C)[C@@H]4c4cccnc4)CC3)CC2)C1"
  tgt: "human alpha1 nicotinic acetylcholine (nACh) receptor (Homo sapiens, UniProt P02708)"
  result-operator: "≤"
  reported-value: 5.00
- structure-string: "CC(C)N(C)[C@@H]1CC[C@H](N2CC[C@H](Nc3ncnc4ccc(C(F)(F)F)cc34)C2=O)[C@H](NC(=O)CCOCCNC(=O)COCCNC(=O)COCCNC(=O)[C@H]2CC(=O)N(C)[C@@H]2c2cccnc2)C1"
  tgt: "human alpha1 nicotinic acetylcholine (nACh) receptor (Homo sapiens, UniProt P02708)"
  result-operator: "="
  reported-value: 4.18

* * *

tgt: anti-cotinine antibody (SEQ ID NO: 11/12, rabbit variable region with human IgG1 Fc DE mutation)
measurement-description: SPR binding of anti-cotinine antibody to ARM compounds, Biacore T200, 37° C. (Example 202)
run-conditions: SPR Biacore T200, 37° C., pH 7.4, antibody SEQ ID NO: 11/12 captured on protein A; Kd in molar
Listed compounds paired with reported pKd of Antibody for ARM Compound of Formula (I)
property-measured: pKd of Antibody for ARM Compound of Formula (I)

- compound: "CC(C)N(C)[C@@H]1CC[C@H](N2CC[C@H](Nc3ncnc4ccc(C(F)(F)F)cc34)C2=O)[C@H](NC(=O)CCOCCNC(=O)[C@H]2CC[C@H](NC(=O)COCCNC(=O)[C@H]3CC(=O)N(C)[C@@H]3c3cccnc3)CC2)C1 [Example 108]"
  reported-value: 8.9855
- compound: "CC(C)N(C)[C@@H]1CC[C@H](N2CC[C@H](Nc3ncnc4ccc(C(F)(F)F)cc34)C2=O)[C@H](NC(=O)COCCNC(=O)COCCNC(=O)COCCNC(=O)[C@H]2CC(=O)N(C)[C@@H]2c2cccnc2)C1 [Example 111]"
  reported-value: 9.0855
- compound: "CC(C)N(C)[C@@H]1CC[C@H](N2CC[C@H](Nc3ncnc4ccc(C(F)(F)F)cc34)C2=O)[C@H](NC(=O)[C@H]2CC[C@@H](NC(=O)CCOCCOCCNC(=O)CNC(=O)[C@H]3CC(=O)N(C)[C@@H]3c3cccnc3)CC2)C1 [Example 63]"
  reported-value: 8.674
- compound: "CC(C)N(C)[C@@H]1CC[C@H](N2CC[C@H](Nc3ncnc4ccc(C(F)(F)F)cc34)C2=O)[C@H](NC(=O)[C@H]2CC[C@H](NC(=O)CCCO[C@H]3CC[C@H](OCCNC(=O)[C@H]4CC(=O)N(C5CC5)[C@@H]4c4cccnc4)CC3)CC2)C1 [Example 13]"
  reported-value: 10.511
- compound: "CC(C)N(C)[C@@H]1CC[C@H](N2CC[C@H](Nc3ncnc4ccc(C(F)(F)F)cc34)C2=O)[C@H](NC(=O)CCOCCOCCOCCNc2c(NCCCNC(=O)[C@H]3CC(=O)N(C)[C@@H]3c3cccnc3)c(=O)c2=O)C1 [Example 169]"
  reported-value: 9.0085
- compound: "CN1C(=O)C[C@H](C(=O)NCCOCCOCCOCCOCCOCCOCCC(=O)N[C@@H]2C[C@H](NC(C)(C)C)CC[C@@H]2N2CC[C@H](Nc3ncnc4ccc(C(F)(F)F)cc34)C2=O)[C@H]1c1cccnc1 [Example 38]"
  reported-value: 9.611
- compound: "CC(C)N(C)[C@@H]1CC[C@H](N2CC[C@H](Nc3ncnc4ccc(C(F)(F)F)cc34)C2=O)[C@H](NC(=O)CCCC(=O)N[C@H]2CC[C@H](CNC(=O)CCOCCNC(=O)[C@H]3CC(=O)N(C)[C@@H]3c3cccnc3)CC2)C1 [Example 180]"
  reported-value: 9.249
- compound: "CC(C)N(C)[C@@H]1CC[C@H](N2CC[C@H](Nc3ncnc4ccc(C(F)(F)F)cc34)C2=O)[C@H](NC(=O)[C@H]2CC[C@@H](NC(=O)CCCO[C@H]3CC[C@@H](OCCNC(=O)[C@H]4CC(=O)N(C)[C@@H]4c4cccnc4)CC3)CC2)C1 [Example 3]"
  reported-value: 9.2795
- compound: "CC(C)N(C)[C@@H]1CC[C@H](N2CC[C@H](Nc3ncnc4ccc(C(F)(F)F)cc34)C2=O)[C@H](NC(=O)CCOCCOCCNC(=O)NCCOCCOCCNC(=O)[C@H]2CC(=O)N(C)[C@@H]2c2cccnc2)C1 [Example 119]"
  reported-value: 9.1735
- compound: "CN1C(=O)C[C@H](C(=O)NCCOCCNC(=O)[C@H]2C[C@H](NC(=O)CCOCCC(=O)N[C@@H]3C[C@H](NC(C)(C)C)CC[C@@H]3N3CC[C@H](Nc4ncnc5ccc(C(F)(F)F)cc45)C3=O)C2)[C@H]1c1cccnc1 [Example 188]"
  reported-value: 8.975
- compound: "CC(C)N(C)[C@@H]1CC[C@H](N2CC[C@H](Nc3ncnc4ccc(C(F)(F)F)cc34)C2=O)[C@H](NC(=O)C2CCN(C(=O)CCOCCOCCOCCNC(=O)[C@H]3CC(=O)N(C)[C@@H]3c3cccnc3)CC2)C1 [Example 29]"
  reported-value: 9.3345
- compound: "CC(C)N(C)[C@@H]1CC[C@H](N2CC[C@H](Nc3ncnc4ccc(C(F)(F)F)cc34)C2=O)[C@H](NC(=O)[C@H]2CC[C@@H](NC(=O)CNC(=O)CCOCCOCCNC(=O)[C@H]3CC(=O)N(C)[C@@H]3c3cccnc3)CC2)C1 [Example 83]"
  reported-value: 9.302
- compound: "CC(C)N(C)[C@@H]1CC[C@H](N2CC[C@H](Nc3ncnc4ccc(C(F)(F)F)cc34)C2=O)[C@H](NC(=O)[C@H]2CC[C@@H](CC(=O)CCCOC[C@H]3CC[C@H](COCCNC(=O)[C@H]4CC(=O)N(C)[C@@H]4c4cccnc4)CC3)CC2)C1 [Example 60]"
  reported-value: 9.4635
- compound: "CC(C)N(C)[C@@H]1CC[C@H](N2CC[C@H](Nc3ncnc4ccc(C(F)(F)F)cc34)C2=O)[C@H](NC(=O)[C@H]2C[C@@H](NC(=O)CCOCCOCCNC(=O)CCNC(=O)[C@H]3CC(=O)N(C)[C@@H]3c3cccnc3)C2)C1 [Example 49]"
  reported-value: 9.191
- compound: "CC(C)N(C)[C@@H]1CC[C@H](N2CC[C@H](Nc3ncnc4ccc(C(F)(F)F)cc34)C2=O)[C@H](NC(=O)CCOCCC(=O)N[C@H]2C[C@@H](C(=O)NCCOCCNC(=O)[C@H]3CC(=O)N(C)[C@@H]3c3cccnc3)C2)C1 [Example 186]"
  reported-value: 9.1435
